PROCEDURE DETAILS: Pharmacokinetic analysis, plasma concentrations by LC-MS/MS, noncompartmental
Assay type: in vivo, human
CONDITION SUMMARY: male, human, plasma, po, 750 mg, T1/2, 750 mg oral; C2D2 (n=l), steady-state
EXPERIMENTAL READOUT: half-life (h)

> print(dat)
                            compound.string  reading.unit  endpoint.value
1  CC(C)[C@](O)(c1ccc2cc(OC(F)F)c(OC(F)F)cc2c1)c1c[nH]nn1             h            18.3

* * *

PROCEDURE DETAILS: Pharmacokinetic analysis, plasma concentrations by LC-MS/MS, noncompartmental
Assay type: in vivo, human
CONDITION SUMMARY: male, human, plasma, po, 600 mg, T1/2, 600 mg oral; C1D1 (n=4), first dose
EXPERIMENTAL READOUT: half-life

> print(dat)
                            compound.string  experimental.readout  endpoint.value
1  CC(C)[C@](O)(c1ccc2cc(OC(F)F)c(OC(F)F)cc2c1)c1c[nH]nn1             half-life          16.4 h

* * *

PROCEDURE DETAILS: Pharmacokinetic analysis, plasma concentrations by LC-MS/MS, noncompartmental
Type: in vivo, human
CONDITION SUMMARY: male, human, plasma, oral, mean first dose half-life, 48-hr sampling window; range 7.9 – 23.5 hr
EXPERIMENTAL READOUT: half-life (min)

> print(dat)
                                   compound  reading.unit  endpoint.value
1  CC(C)[C@](O)(c1ccc2cc(OC(F)F)c(OC(F)F)cc2c1)c1c[nH]nn1 [Seviteronel]           min             834

* * *

PROCEDURE DETAILS: Pharmacokinetic analysis, plasma concentrations by LC-MS/MS, noncompartmental
Type: in vivo, human
CONDITION SUMMARY: male, human, plasma, po, 750 mg, Vz/F, 750 mg oral; C2D2 (n=l), steady-state
EXPERIMENTAL READOUT: Vd/F (L)

> print(dat)
                            compound.string  endpoint.value
1  CC(C)[C@](O)(c1ccc2cc(OC(F)F)c(OC(F)F)cc2c1)c1c[nH]nn1             312

* * *

PROCEDURE DETAILS: Pharmacokinetic analysis, plasma concentrations by LC-MS/MS, noncompartmental
Assay type: in vivo, human
CONDITION SUMMARY: male, human, plasma, po, 750 mg, Tmax, 750 mg oral; C1D1 (n=3), first dose
EXPERIMENTAL READOUT: Tmax (h)

> print(dat)
                            compound.string  experimental.readout  endpoint.value
1  CC(C)[C@](O)(c1ccc2cc(OC(F)F)c(OC(F)F)cc2c1)c1c[nH]nn1                  Tmax               2

* * *

PROCEDURE DETAILS: Pharmacokinetic analysis, plasma concentrations by LC-MS/MS, noncompartmental
Assay type: in vivo, human
CONDITION SUMMARY: male, human, plasma, po, 750 mg, T1/2, 750 mg oral; C1D1 (n=3), first dose
EXPERIMENTAL READOUT: half-life

> print(dat)
                            compound.string  endpoint.value
1  CC(C)[C@](O)(c1ccc2cc(OC(F)F)c(OC(F)F)cc2c1)c1c[nH]nn1          10.5 h
